Assay: protein stability index of a GFP-peptide fusion (yeast GPS) (PSI 1-4); higher = more stable; sorted into four equal gates, so the index is relative within each strain
Conditions: ubr1∆
class 1 means recorded protein stability index is 3 or above; class 0 means it is below 3.

{"columns": ["biopolymer-sequence", "assigned-category"],
 "data": [
  ["REEAIGFIRGSNKFAEV [SMC3]", "class 0"],
  ["QPQETEEHHEEEPSRVD [RPT4]", "class 1"],
  ["GTIDKLQLELTIEDIAV [RPO31]", "class 0"],
  ["KTEPVGTGLQSYLEERE [RPC53]", "class 1"],
  ["NNNEDNENNNNSSEKNN [MED2]", "class 1"],
  ["FRPIEIFTDFLPSSNGS [RRP42]", "class 0"],
  ["LEHLHSTAFQNTPLSLP [COR1]", "class 0"],
  ["DDFFKELAKEAKKSTTI [ESC2]", "class 1"],
  ["SNMILGSVELSTGDYTF [YML103C/NUP188]", "class 0"],
  ["RVISEYYSRITLLRLNE [RPN5]", "class 0"],
  ["PLINRLKHYNGYDINYI [SWI1]", "class 0"],
  ["TFKDGVILGADSRTTTG [PRE3]", "class 0"]
]}

----------
Experiment: protein stability index of a GFP-peptide fusion (yeast GPS) (PSI 1-4); higher = more stable; sorted into four equal gates, so the index is relative within each strain
Details: ubr1∆

{"columns": ["biopolymer-sequence", "protein stability index"],
 "data": [
  ["IPRTFRTPVPSTLMPGG [SNF5]", 2.65],
  ["LKLPLEINYAFSMDEEF [SIR3]", 2.2],
  ["AQAQAQAQAQAQAQAQA [GAL11]", 3.09],
  ["VLKKKNIQKKQPAKEKG [RRP6]", 3.22],
  ["LQFHVATYMDNDIAGQP [RPO21]", 2.66],
  ["MENNEPAMAMEDLKNFI [SRB8]", 3.08],
  ["TIGAIFLNHAFDYMNRY [CDC53]", 1.89],
  ["KKCHRLLWTPKKLEITS [RPR2]", 2.34],
  ["RIANIEQNHLDNNYNTA [YDL088C/ASM4]", 3.03],
  ["KDGRIRIFKITEKLSPL [YGL100W/SEH1]", 2.79],
  ["TQDDFTTSVDVMLKGIV [SRP54]", 1.51],
  ["EQGIELEHIDSKSEFAH [FAS2]", 2.15],
  ["CYEKVLESINEGNQIIV [BRR2]", 2.34],
  ["QQQLRNQIQRQQQQQFR [SNF5]", 1.55]
]}

----------
Test: protein stability index of a GFP-peptide fusion (yeast GPS) (PSI 1-4); higher = more stable; sorted into four equal gates, so the index is relative within each strain
Conditions: ubr1∆
condition met means recorded protein stability index is 3 or above; condition not met means it is below 3.

{"columns": ["biopolymer-sequence", "assigned-category"],
 "data": [
  ["IRYNAKRRNWRRTKMNI [RPL39]", "condition met"],
  ["ELALKTLSKTTDSSALT [PRE9]", "condition not met"],
  ["LNQINGLNNDFLFQNIN [GRR1]", "condition not met"],
  ["DAFRVHICGICGLMTVI [RPB2]", "condition not met"],
  ["ELLIYKKSQCKKKTTLE [YIL149C/MLP2]", "condition met"]
]}

----------
Assay: protein stability index of a GFP-peptide fusion (yeast GPS) (PSI 1-4); higher = more stable; sorted into four equal gates, so the index is relative within each strain
Conditions: doa10∆
Each record gets a class by protein stability index: lower band (below 2), central band (2 to below 3), upper band (3 or more)

{"columns": ["biopolymer-sequence", "assigned-category"],
 "data": [
  ["ILSVKLAELINMTTIAD [SRB6]", "central band"],
  ["MTAAVTSSNIVLETHES [RPT6]", "central band"],
  ["HDLLQIIHFHSHPEKRM [SSN3]", "central band"],
  ["KLKNENTDLKDIIQGNP [PCI8]", "central band"],
  ["VILKQILQILDQDELVQ [SWP82]", "central band"],
  ["PSEILHLILDKLNQKYD [GRR1]", "upper band"],
  ["RDYLVDTLKLRENLHIL [RRP6]", "upper band"],
  ["PKFISEALAFTSLVANE [YDL116W/NUP84]", "lower band"],
  ["TAAYARTIGIAVDHRRQ [RPL13A]", "lower band"],
  ["GNQQQQLQQQPQMQCAL [YGL172W/NUP49]", "central band"],
  ["KFRSSILRKSFDFLMNM [RPN2]", "central band"],
  ["VPQSEETRAELSQLCAV [RPO21]", "central band"],
  ["SPIVNVLEDVYRCFAQL [RRI2]", "central band"],
  ["MLLVDIIPSRMGEAQTG [REC8]", "lower band"],
  ["LGEFSITYTPVRHGRAG [RPS15]", "lower band"],
  ["SLVFNRKLAVERAGHLL [PRE5]", "central band"],
  ["WIRLRTNNTIRYNAKRR [RPL39]", "central band"],
  ["TNQDGLKFVKVRVRTTK [RPB2]", "central band"],
  ["KNVRFRVLQLLAVIMDN [YCG1]", "lower band"],
  ["KVFIRESLSLKNIHISK [YML103C/NUP188]", "central band"],
  ["NVFGQDNEDSDNLFGET [SWI3]", "upper band"],
  ["VRSAEYYAKKRAFTKKV [RPL16B]", "central band"],
  ["LMEFLCVVSTDSTNLSD [ECM29]", "lower band"],
  ["RELFVMAREHAPSIIFM [RPT6]", "lower band"],
  ["TQVFNILLQHKEKLTVQ [POP1]", "upper band"],
  ["FSEVYEYNRLKVQDAIE [LIN1]", "central band"],
  ["SEDDSESGKVFIGRLPI [RPB2]", "upper band"],
  ["TFTQLVSSSLYERRFGP [PUP3]", "central band"],
  ["QNCWSLINDSYINDVHL [SSN8]", "upper band"],
  ["MAVGKNKRLSKGKKGQK [RPS1A]", "lower band"],
  ["SYVVPRLYLKDQTNHIE [ECM29]", "central band"],
  ["SDDDNIGQSEELSDKEI [ISW2]", "upper band"],
  ["SSTDFSTCIVSLIRNNL [ECM29]", "central band"],
  ["QEGLAKFGACVAQGIMN [RPN2]", "lower band"],
  ["FSRHAQQQTSTFNSKPV [SIR4]", "central band"],
  ["PTFSTHAQLLLSDRITG [PRP8]", "lower band"],
  ["TKIFNSVAEVFQKAQGS [YCG1]", "lower band"],
  ["KIESSVESQFSAGRLYA [RPS8A]", "central band"],
  ["EWDMLNVEEEQIVPYIE [BRR2]", "upper band"],
  ["LPDPKPLPLDLNVQVWH [ITC1]", "central band"],
  ["KAFEERHQAGKNQWFFS [RPL27A]", "central band"],
  ["SSLEELLLKDQQTAKKL [ECM29]", "central band"],
  ["FPPGVIGIDEGSDEAYV [RPC40]", "upper band"],
  ["EIRRFQKSTELLIRKLP [HHT1]", "central band"],
  ["NQYKLVFYQVTPEDADE [RPL22B]", "central band"],
  ["RENLHILNEVFTNPSIV [RRP6]", "central band"],
  ["FLLTQSKVSIEQRKEAA [RPN7]", "central band"],
  ["HINKKSQLDLFLRTMKL [GRR1]", "lower band"],
  ["KEIYYTPDPSELAAKEE [FAS2]", "central band"],
  ["LHVLVAHKLKKSLDSIP [FAS2]", "central band"],
  ["YDPIKRIDAFNALEHKY [SSN3]", "central band"]
]}

----------
Test: protein stability index of a GFP-peptide fusion (yeast GPS) (PSI 1-4); higher = more stable; sorted into four equal gates, so the index is relative within each strain
Conditions: pdr5∆
This section presents sequences with their documented protein stability index values.
endpoint-name: protein stability index

{"columns": ["biopolymer-sequence", "endpoint-name", "measured-result"],
 "data": [
  ["GKGRQSAKAELEKLVDH [PRE10]", "protein stability index", 2.19],
  ["ALLTVLKALSHHYNPKT [BRR2]", "protein stability index", 2.25],
  ["NLHALSMSLQSKNLGEI [SWI1]", "protein stability index", 2.61],
  ["EALNLLKFFLVDENETV [LIN1]", "protein stability index", 1.52],
  ["NDDFSEVFEFKTFNKIQ [BRR2]", "protein stability index", 2.06],
  ["ILSVKLAELINMTTIAD [SRB6]", "protein stability index", 2.46],
  ["IDSINGPDTKGQLEDFD [SMC3]", "protein stability index", 3.29],
  ["NSANGSSLNGTNAKIPQ [SSN3]", "protein stability index", 2.72],
  ["QEGLAKFGACVAQGIMN [RPN2]", "protein stability index", 1.75],
  ["RAVLTPLITRHCYPRQL [RRP46]", "protein stability index", 2.18],
  ["AYPAAREQFLNAQDIDH [FAS1]", "protein stability index", 3.15],
  ["VEASRRRRSSTNKSKRP [MED1]", "protein stability index", 3.31],
  ["HSISEAENMLEELRGQQ [SMC4]", "protein stability index", 2.52],
  ["NQLSQTNKLLFKRVSQT [NUT1]", "protein stability index", 1.36],
  ["SLISTRNDSTVNDSVIS [BRN1]", "protein stability index", 2.81]
]}

Numbers sourced from the supplement of paper PMC9732359.
